# Tested on: A549
# ASSAY_NAME: NCI tumour cell line growth inhibition, 48 h
The source made the active and inactive calls. No stated cut-off is given here; in the data, active = GI50 up to about 1.1 µM and inactive = higher.
Reported values of GI50 for individual entries
OBSERVATION_TYPE: GI50

[[record]]
molecule = "NC1=Nc2ccccc2Sc2cccc(F)c21"
result = "57.5 µM (inactive)"

[[record]]
molecule = "CCN1CCC(O)(/C=C/c2cccc(C)c2)C(C(=O)/C=C/c2cccc(C)c2)C1 (stereo not drawn)"
result = "2.29 µM (inactive)"

[[record]]
molecule = "CC(C)CC12CC3CCC(CNC1=O)C32C (stereo not drawn)"
result = "> 100 µM (inactive)"


---

# Test system: K562
# ASSAY_NAME: NCI tumour cell line growth inhibition, 48 h
Active and inactive are the calls of the source. No stated cut-off is given here; in the data, active = GI50 up to about 1.1 µM and inactive = higher. Where a SMILES comes first, the peptide text is derived from it. The star is where a group is joined. Boc = CC(C)(C)OC(=O)*; OBn = c1ccc(CO*)cc1
Labels: yes for active, no for inactive

[[record]]
compound = "CC(C)(C)/N=N/C(C)(C)N=C=O"
target_desc = "K562"
class = "no"

[[record]]
compound = "COc1cc2c(/C=C3/C(=O)Nc4ccc(O)cc43)c(Cl)n(Cc3ccccc3)c2cc1C"
target_desc = "K562"
class = "yes"

[[record]]
compound = "COc1cc(CNc2nc3ccccc3nc2C(=O)O)cc(OC)c1OC"
target_desc = "K562"
class = "no"

[[record]]
compound = "CN/N=C(\\C)C(CN(C)C)C(c1ccccc1)c1c(O)c2ccccc2oc1=O (configuration not stated)"
target_desc = "K562"
class = "no"

[[record]]
compound = "C=CC[P@]1(=O)O[C@H](c2ccccc2)C(C)N1C(C)C (some centres not stated)"
target_desc = "K562"
class = "no"

[[record]]
compound = "COc1ccc(-n2c3c(c4cc(O)ccc42)Cc2ccccc2C3=O)cc1"
target_desc = "K562"
class = "no"

[[record]]
compound = "COc1ccc(C(=O)CC2=Nc3nnc(CCCCCCCc4nnc5n4C(=O)C(CC(=O)c4ccc(OC)cc4)=N5)n3C2=O)cc1"
target_desc = "K562"
class = "no"

[[record]]
compound = "C=C(C1=CC(=O)C(C)(C)O1)[C@@H]1CC=C([C@@H]2CC[C@H]3[C@@]2(C)CC[C@H]2C(C)(C)C(=O)[C@H](O)C[C@]32C)[C@H](O)O1"
target_desc = "K562"
class = "no"

[[record]]
compound = "Cc1cc(N(CCC#N)CCC#N)ccc1C(/N=N/c1ccc(C(=O)O)cc1)=N\\NC(=O)c1ccccc1"
target_desc = "K562"
class = "no"

[[record]]
compound = "COc1ccc(N2C(=O)C(=O)N(c3ccc(/N=N\\c4ccccc4)cc3)C2=S)cc1"
target_desc = "K562"
class = "no"

[[record]]
compound = "COc1ccc2[nH]c3c(cnn4cnnc34)c2c1"
target_desc = "K562"
class = "no"

[[record]]
compound = "C[n+]1c2ccccc2n2c3ccccc3c(NCCc3ccccn3)c(C#N)c21"
target_desc = "K562"
class = "no"

[[record]]
compound = "Cc1c2cnccc2nc2[nH]c3ccncc3c12"
target_desc = "K562"
class = "no"

[[record]]
compound = "CCOC(=O)C(Cc1ccccc1)NC(=O)c1ccc(/N=N/N(C)C)cc1 (configuration not stated)"
target_desc = "K562"
class = "no"

[[record]]
compound = "CC(C)CC(NC(=O)C(Cc1ccccc1)NC(=O)C(Cc1ccccc1)NC(=O)OC(C)(C)C)C(=O)OCc1ccccc1 (stereo not drawn) (Boc-Phe-Phe-Leu-OBn; configuration not given here)"
target_desc = "K562"
class = "no"

[[record]]
compound = "Cc1cccc2nc3cccc(C(=O)NCCC[N+](C)(CCCNC(=O)c4cccc5nc6cccc(C)c6nc45)Cc4c([N+](=O)[O-])ncn4C)c3nc12"
target_desc = "K562"
class = "no"

[[record]]
compound = "COc1cc(S(=O)(=O)Nc2nc(-c3ccc(/N=C/c4ccccc4O)cc3)cs2)ccc1Cl"
target_desc = "K562"
class = "no"

[[record]]
compound = "O=C1C(Cl)N(c2cccc(Cl)c2)C1c1c[nH]c2ccccc12 (configuration not stated)"
target_desc = "K562"
class = "no"

[[record]]
compound = "Clc1nc(NCCc2ccccc2)c2ncn(-c3ccccc3)c2n1"
target_desc = "K562"
class = "no"

[[record]]
compound = "CCOC(=O)NC(Nc1cccc(F)c1)(C(F)(F)F)C(F)(F)F"
target_desc = "K562"
class = "no"

[[record]]
compound = "O=C1CCc2ccc(O)c(c2)Oc2ccc(cc2)C(Sc2ccccc2)CCO1 (configuration not stated)"
target_desc = "K562"
class = "no"

[[record]]
compound = "COc1cc2[nH]c3c(c2cc1OC)CCN[C@]31CC[C@]2(CC3c4c(cc(OC)c(O)c42)CCN3C)C[C@H]1OC (some centres not stated)"
target_desc = "K562"
class = "no"

